Can you tell me total protein half-life in vivo for the items I'm about to list?
# protocol-notes: total protein half-life in vivo (active degradation + dilution); higher = more stable protein
# assay-context: wild type E. coli NCM3722; growth: P-lim chemostat; doubling time 6 h
Report the figure in h without appending any unit label.

[ask] For `MNDIAHNLAQVRDKISAAATRCGRSPEEITLLAVSKTKPASAIAEAIDAGQRQFGENYVQEGVDKIRHFQELGVTGLEWHFIGPLQSNKSRLVAEHFDWCHTIDRLRIATRLNDQRPAELPPLNVLIQINISDENSKSGIQLAELDELAAAVAELPRLRLRGLMAIPAPESEYVRQFEVARQMAVAFAGLKTRYPHIDTLSLGMSDDMEAAIAAGSTMVRIGTAIFGARDYSKK` , write its total protein half-life in vivo.
[reply] 5.95

[ask] Identify measured total protein half-life in vivo associated with MMELMVVHPHIFWLSLGGLLLAAEMLGGNGYLLWSGVAAVITGLVVWLVPLGWEWQGVMFAILTLLAAWLWWKWLSRRVREQKHSDSHLNQRGQQLIGRRFVLESPLVNGRGHMRVGDSSWPVSASEDLGAGTHVEVIAIEGITLHIRAVSS [P0AAS3]
[reply] 7.12

[ask] Answer with the recorded total protein half-life in vivo of `MLSRHINYFLAVAEHGSFTRAASALHVSQPALSQQIRQLEESLGVPLFDRSGRTIRLTDAGEVWRQYASRALQELGAGKRAIHDVADLTRGSLRIAVTPTFTSYFIGPLMADFYARYPSITLQLQEMSQEKIEDMLCRDELDVGIAFAPVHSPELEAIPLLTESLALVVAQHHPLAVHEQVALSRLHDEKLVLLSAEFATREQIDHYCEKAGLHPQVVIEANSISAVLELIRRTSLSTLLPAAIATQHDGLKAISLAPPLLERTAVLLRRKNSWQTAAAKAFLHMALDKCAVVGGNESR` only.
[reply] 5.54

[ask] Supply recorded total protein half-life in vivo for `MNNTPRYPQRVRNDLRFRELTVLRVERISAGFQRIVLGGEALDGFTSRGFDDHSKLFFPQPDAHFVPPTVTEEGIVWPEGPRPPSRDYTPLYDELRHELAIDFFIHDGGVASGWAMQAQPGDKLTVAGPRGSLVVPEDYAYQLYVCDESGMPALRRRLETLSKLAVKPQVSALVSVRDNACQDYLAHLDGFNIEWLAHDEQAVDARLAQMQIPADDYFIWITGEGKVVKNLSRRFEAEQYDPQRVRAAAYWHAK` here.
[reply] 5.66

[ask] Dear colleague, please send me the reported total protein half-life in vivo for `MKQHQSADNSQGQLYIVPTPIGNLADITQRALEVLQAVDLIAAEDTRHTGLLLQHFGINARLFALHDHNEQQKAETLLAKLQEGQNIALVSDAGTPLINDPGYHLVRTCREAGIRVVPLPGPCAAITALSAAGLPSDRFCYEGFLPAKSKGRRDALKAIEAEPRTLIFYESTHRLLDSLEDIVAVLGESRYVVLARELTKTWETIHGAPVGELLAWVKEDENRRKGEMVLIVEGHKAQEEDLPADALRTLALLQAELPLKKAAALAAEIHGVKKNALYKYALEQQG` when you can.
[reply] 5.46

[ask] For `MNIVVLISGNGSNLQAIIDACKTNKIKGTVRAVFSNKADAFGLERARQAGIATHTLIASAFDSREAYDRELIHEIDMYAPDVVVLAGFMRILSPAFVSHYAGRLLNIHPSLLPKYPGLHTHRQALENGDEEHGTSVHFVTDELDGGPVILQAKVPVFAGDSEDDITARVQTQEHAIYPLVISWFADGRLKMHENAAWLDGQRLPPQGYAADE` , write its total protein half-life in vivo.
[reply] 5.58

[ask] Please report total protein half-life in vivo for the following sequence: MTNLNYQQTHFVMSAPDIRHLPSDTGIEVAFAGRSNAGKSSALNTLTNQKSLARTSKTPGRTQLINLFEVADGKRLVDLPGYGYAEVPEEMKRKWQRALGEYLEKRQSLQGLVVLMDIRHPLKDLDQQMIEWAVDSNIAVLVLLTKADKLASGARKAQLNMVREAVLAFNGDVQVETFSSLKKQGVDKLRQKLDTWFSEMQPVEETQDGE [P0A6P7]
[reply] 5.59

[ask] Give the reported value of total protein half-life in vivo for this record: MIRNVLLAFMICSGMTLLGGCSSVMSHTGGKEGTYPGTRASATMIGDDETNWGTKSLAILDMPFTAVMDTLLLPWDVFRKDSSVRSRVEKSEANAQATNAVIPPARMPDN [P0ADM4]
[reply] 4.8

[ask] Check the records and state total protein half-life in vivo for `MKLTLKNLSMAIMMSTIVMGSSAMAADSNEKIVIAHRGASGYLPEHTLPAKAMAYAQGADYLEQDLVMTKDDNLVVLHDHYLDRVTDVADRFPDRARKDGRYYAIDFTLDEIKSLKFTEGFDIENGKKVQTYPGRFPMGKSDFRVHTFEEEIEFVQGLNHSTGKNIGIYPEIKAPWFHHQEGKDIAAKTLEVLKKYGYTGKDDKVYLQCFDADELKRIKNELEPKMGMELNLVQLIAYTDWNETQQKQPDGSWVNYNYDWMFKPGAMKQVAEYADGIGPDYHMLIEETSQPGNIKLTGMVQDAQQNKLVVHPYTVRSDKLPEYTPDVNQLYDALYNKAGVNGLFTDFPDKAVKFLNKE`
[reply] 5.23

[ask] Give recorded total protein half-life in vivo. MTIWVDADACPNVIKEILYRAAERMQMPLVLVANQSLRVPPSRFIRTLRVAAGFDVADNEIVRQCEAGDLVITADIPLAAEAIEKGAAALNPRGERYTPATIRERLTMRDFMDTLRASGIQTGGPDSLSQRDRQAFAAELEKWWLEVQRSRG [P0A8D3]
[reply] 5.28

[ask] Please report total protein half-life in vivo for the following sequence: `MSNKNVNVRKSQEITFCLLAGILMFMAMMVAGRAEAGVALGATRVIYPAGQKQEQLAVTNNDENSTYLIQSWVENADGVKDGRFIVTPPLFAMKGKKENTLRILDATNNQLPQDRESLFWMNVKAIPSMDKSKLTENTLQLAIISRIKLYYRPAKLALPPDQAAEKLRFRRSANSLTLINPTPYYLTVTELNAGTRVLENALVPPMGESTVKLPSDAGSNITYRTINDYGALTPKMTGVME`
[reply] 5.67

[ask] Fill in total protein half-life in vivo for record MSQLTHINAAGEAHMVDVSAKAETVREARAEAFVTMRSETLAMIIDGRHHKGDVFATARIAGIQAAKRTWDLIPLCHPLMLSKVEVNLQAEPEHNRVRIETLCRLTGKTGVEMEALTAASVAALTIYDMCKAVQKDMVIGPVRLLAKSGGKSGDFKVEADD [P0A738]
[reply] 4.92

[ask] Give the reported value of total protein half-life in vivo for this record: `MLAFCRSSLKSKKYIIILLALAAIAGLGTHAAWSSNGLPRIDNKTLARLAQQHPVVVLFRHAERCDRSTNQCLSDKTGITVKGTQDARELGNAFSADIPDFDLYSSNTVRTIQSATWFSAGKKLTVDKRLLQCGNEIYSAIKDLQSKAPDKNIVIFTHNHCLTYIAKDKRDATFKPDYLDGLVMHVEKGKVYLDGEFVNH`
[reply] 5.09
